Test system: SK-MEL-28 melanoma
test_name: NCI-60 one-dose screen, 48 h
settings: 10 µM unless noted
This is part of a sample that, as a whole, favours compounds with a hit. Of some 83,000 tested, about 20% had one in any assay. Calls of active or inactive are those of the source. How the source made its calls: active means growth percent below 10; inactive means the rest.
Your response should consist of one outcome taken from active, inactive

// known answers, use as guide
1) CN1CCN(c2ccc(Nc3nc(NCCCNS(=O)(=O)c4ccc(C(F)(F)F)cc4)c4sccc4n3)cc2)CC1	active
2) O=C1[C@@H]2Cc3c([nH]c4ccccc34)[C@H](c3ccc(Br)cc3)N2C(=O)CN1C1CCN(Cc2c(Cl)cccc2Cl)CC1	inactive
3) Cc1cc(NS(=O)(=O)c2ccc(NC(=O)CSc3nc4ccccc4c(=O)n3-c3ccccc3)cc2)no1	inactive
4) CC(C)NC(=O)c1cc(-c2ccc(NC(=O)Nc3ccc(F)cc3)cc2)nc2cccnc12	inactive

IN: Called result for C#CCOc1ccc(/C=N/Nc2nc(-c3ccc(OC)cc3)cs2)cc1
OUT: inactive

IN: Which outcome was assigned to Cc1csc(/N=C(N)/N=C(\N)c2cccc(Br)c2)n1 in this test?
OUT: inactive

IN: What did this assay record as the result for NS(=O)(=O)c1ccc(Nc2nc(N/N=C/C=C/c3ccccc3)nc(Nc3ccccc3)n2)cc1 ?
OUT: inactive

IN: What did the test return for COc1ccc2c(c1)c(/C=N/Nc1ccnc3cc(Cl)ccc13)cn2C ?
OUT: active

----------
Test system: MALME-3M melanoma
test_name: NCI-60 one-dose screen, 48 h
settings: 10 µM unless noted
About 83,000 compounds went through this panel and 20% of them were active in at least one assay; those are over-represented in the sample as a whole. Activity calls are given as the source filed them. Rule for the calls: active = growth percent below 10; inactive = the rest.
Outcomes you can answer with include only these: T for active, F for inactive

Observe how each entry below is paired with its result.
1) CC1CC(=O)C2=C(C1)Nc1ccc(Br)cc1CC2c1c[nH]c2ccc(Br)cc12 (configuration not stated)	F
2) CC1=Cc2ccccc2OC12C=Cc1ccccc1O2 (configuration not stated)	F
3) CN(C)c1ccc(-c2cc(-c3c[nH]c4ccccc34)nc(N)c2C#N)cc1	F
4) O=S(=O)(Oc1ccc(-c2cn3ccoc3n2)cc1)C1CCCCC1	F

IN: Assay outcome for Cc1ccc2c(n1)C(=O)C(Cl)=C(Nc1ccc(C)c(C)c1)C2=O : what was it?
OUT: F

IN: In this assay, the call recorded for O=C(Nc1ccc(N=Cc2c(O)[nH]c3ccccc23)cc1)Nc1ccc(S(=O)(=O)Nc2ncccn2)cc1 was what?
OUT: F

----------
Test system: NCI-H522 lung
test_name: NCI-60 one-dose screen, 48 h (100 = growth as untreated, 0 = no growth, -100 = all killed)
settings: 10 µM unless noted
The panel holds about 83,000 compounds, 20% with a hit somewhere; the sample as a whole holds those more often.
Threshold check on growth: strictly below 70% is condition met; on or above 70% is condition not met.

// below: answered molecules
1) CCc1cc(OC(=O)N2CCN(CCC(C)(COC(C)(C)C)COC(C)(C)C)CC2)ccc1Nc1cc(-c2ccc(-n3cccn3)cc2)[nH]n1	condition not met
2) O=C(O)CC1CCN(c2ccc3nnc(Cl)n3n2)CC1	condition not met
3) CC(Nc1c(C#N)cnc2ccc(-c3cncc(O)c3)cc12)c1ccccc1 (stereo not given)	condition met
4) COc1cccc2c1C=CC1(O2)Oc2cccc(OC)c2C=C1C (stereo not given)	condition met
5) COc1cc2cc(Oc3ccc(NC(=O)Nc4ccc(F)c(C(F)(F)F)c4)cc3)c(C)nc2cc1OCCN(C)C	condition not met

IN: Determine if Cn1c(SCC(=O)c2ccc(Br)cc2)nc2ccccc2c1=O shows growth strictly lower than 70%.
OUT: condition not met

IN: Consider NC(=O)c1ncn2c(=O)n(CCF)nnc12 . Does its growth lie strictly below 70%?
OUT: condition not met

IN: Find out if reported growth for CN1CCN(Cc2ccc(NC(=O)c3cncc(C#Cc4cnc(N)nc4)c3)cc2C(F)(F)F)CC1 is less than 70%
OUT: condition met

IN: Report whether reported growth is lower than 70% (strictly) for CCCCCN1C(=O)/C(=c2\sc3n(c2=O)C2C(NN=3)N(CC)C(=O)N2CC)c2cccc(C)c21 (stereo not given)
OUT: condition met

----------
System: K-562 leukemia
test_name: NCI-60 one-dose screen, 48 h
settings: 10 µM unless noted
Protocol: Cells are grown in 96 well plates and exposed to the test compound for 48 hours. Compounds are tested at a single concentration, which is 10^-5 M for most compounds. The reported endpoint is percent growth (GI% or GIPRCNT), where numbers from 0 - 100% represent growth inhibition, and numbers from -100% - 0 represent cell death. For example, a value of 40 represents 60% growth inhibition. A value of 0 means no net growth occurred over the course of the experiment. […]
Compounds without any hit were thinned out: in the full panel of roughly 83,000, 20% have a hit. Activity calls are given as the source filed them. Rule for the calls: active = growth percent below 10; inactive = the rest.
In this exercise, the only acceptable responses are yes (active), no (inactive)

1) Cn1cc(-c2cc3ncnc(Nc4ccc(CC(=O)Nc5nc(C(C)(C)C)cs5)cc4)c3s2)cn1	no
2) Cc1ccc(-c2csc(N/N=C/c3cccs3)n2)cc1	no
3) O=C1[C@@H]2Cc3c([nH]c4ccccc34)[C@H](c3ccc(Br)cc3)N2C(=O)CN1C1CCN(Cc2c(Cl)cccc2Cl)CC1	no
4) Nc1cc(C(=O)N/N=C\c2ccc(OC(F)F)c(OC3CCCC3)c2)nn1CC(O)c1ccccc1 (stereo unspecified)	no
5) CN1CCN(CC#CCn2c3c(c4ccccc42)C[C@]2(C)[C@H]4CC=C5[C@@H]6CC(C)(C)CC[C@]6(C(=O)N6CCOCC6)CC[C@@]5(C)[C@]4(C)CC[C@H]2C3(C)C)CC1	yes

Now for another entry.
IN: # outcome recorded in this test, key = C#CCN(C)CCCOc1ccc(NC(=O)CCCCCCC(=O)NO)cc1Cl
OUT: no

----------
System: SW-620 colon
test_name: NCI-60 one-dose screen, 48 h
settings: 10 µM unless noted
About 83,000 compounds went through this panel and 20% of them were active in at least one assay; those are over-represented in the sample as a whole. Active and inactive are the calls of the source. Rule for the calls: active = growth percent below 10; inactive = the rest.
Lab note: assign the record to one of Yes for active, No for inactive

1. NC(N)=NS(=O)(=O)c1ccc(N=Nc2c(N)nn(-c3ccc([N+](=O)[O-])cc3[N+](=O)[O-])c2N)cc1	No
2. COc1cc2oc(-c3cccc(NC(=O)c4cccc([N+](=O)[O-])c4)c3)cc(=O)c2c(OC)c1OC	No
3. O=C(Nc1ccc(N=Cc2c(O)[nH]c3ccccc23)cc1)Nc1ccc(S(=O)(=O)Nc2ncccn2)cc1	No
4. COC(=O)[C@@H](Cc1c[nH]c2ccccc12)NC(=O)CCCCOc1cc(O)c2c(=O)cc(-c3ccccc3)oc2c1	No
5. CCCC/C(=C\c1ccc(O)c(O)c1)C(=O)NC(Cc1ccccc1)C(=O)C(=O)NCCc1ccc(OC)cc1 (centres undefined)	No

IN: What was the test verdict on C=C(C)[C@@H]1CC[C@]2(C(=O)NC3CCCCC3)CC[C@]3(C)[C@H](CC[C@@H]4[C@@]5(C)CC[C@H](N)C(C)(C)[C@@H]5CC[C@]43C)[C@@H]12 ?
OUT: No

IN: // outcome(item) with item = Cn1ncc2c(C(=O)c3ccc(F)cc3)nc(C(C)(C)C)nc21
OUT: No

----------
System: NCI-H23 lung
test_name: NCI-60 one-dose screen, 48 h (100 = growth as untreated, 0 = no growth, -100 = all killed)
settings: 10 µM unless noted
Protocol: Growth inhibition of the NCI-H23 human Non-Small Cell Lung tumor cell line is measured as a screen for anti-cancer activity. Cells are grown in 96 well plates and exposed to the test compound for 48 hours. Compounds are tested at a single concentration, which is 10^-5 M for most compounds. The reported endpoint is percent growth (GI% or GIPRCNT), where numbers from 0 - 100% represent growth inhibition, and numbers from -100% - 0 represent cell death. […]
About 83,000 compounds went through this panel and 20% of them were active in at least one assay; those are over-represented in the sample as a whole.
compounds and their reported growth
Please give a number only; it is taken to be in %.

Here is how some compounds turned out for growth.
1) CNCCN(C)c1ccc(Nc2cc(NC3CC3)n3ncc(C#N)c3n2)cc1NC(C)=O	-5.36
2) CC1CC(=O)C2=C(C1)Nc1ccc(Br)cc1CC2c1c[nH]c2ccc(Br)cc12 (stereo not drawn)	66.8
3) C[C@H](Nc1ncnc2ccc(-c3cnc(Cl)c(NS(C)(=O)=O)c3)cc12)c1ccccc1	-5.76
4) Cc1cc(C)cc(NC2=C(Cl)C(=O)c3nc(C)ccc3C2=O)c1	22.1

IN: Item under review: O=S(=O)(Oc1ccc(-c2cn3ccoc3n2)cc1)c1cccc(C(F)(F)F)c1 . Reported growth?
OUT: 98

IN: For CCc1cc2c(cc1Cl)nc1c(=O)[nH]c(=O)nc-1n2CCOCC(C)C , what is its reported growth?
OUT: 67.7

IN: # query: growth of entry O=C(CCCCCCNC(=O)c1csc(Br)n1)NO
OUT: 47.7

IN: // returns reported growth for input COc1ccc2c(c1)c(/C=N/Nc1ccnc3cc(Cl)ccc13)cn2C
OUT: -80.5

IN: Would you mind telling me what growth value was observed for COc1ccc(/C(=N\NC(N)=S)c2ccc(Cl)cc2)cc1OC ?
OUT: 27.4

IN: Give the measured growth of Fc1cccc(Cl)c1/C=N/Nc1nc(N/N=C/c2c(F)cccc2Cl)nc(N2CCCCC2)n1 .
OUT: 44.8

IN: What does the data say about its growth? Entry: Cc1ccc2c(n1)C(=O)C(Cl)=C(Nc1cccc(C(F)(F)F)c1)C2=O
OUT: 52.3

IN: Could you share which growth value was measured for CCc1cccc2c3c(sc12)C(c1ccc(F)cc1)C(C#N)=C(/N=C/c1ccc(Cl)cc1)O3 (stereo not drawn) ?
OUT: 32.4

IN: Which value of growth has been reported for N#Cc1c(-c2cccs2)c(C#N)c(=O)n(Cc2nc3ccccc3[nH]2)c1N in the records?
OUT: 90.7

IN: Quick one: growth for Cc1csc(/N=C(N)/N=C(\N)c2cccs2)n1 ?
OUT: 90.5

IN: What value of growth has been recorded for this entry: Cc1cc2nc(C(Cl)Cl)nc(-c3ccc(S(=O)(=O)N(C)C)cc3)n2n1
OUT: 44.4

IN: Value lookup for growth; key = O=C(NCCNc1cc(-c2cn(-c3ccccc3)nc2-c2cccc(O)c2)ccn1)Nc1cc(C(F)(F)F)cc(C(F)(F)F)c1
OUT: 98.1

IN: # growth lookup, item Cc1ccc(S(=O)(=O)NCCCNc2nc(Nc3ccc(N4CCN(C)CC4)cc3)nc3ccsc23)cc1
OUT: 75.6

IN: Recorded growth of O=C(Nc1cc(C(F)(F)F)cc(C(F)(F)F)c1)Nc1ccc2oc(=O)ccc2c1 , please.
OUT: -0.22

IN: Can you share its growth? I mean this compound: O=C(Nc1cccc(C(F)(F)F)c1)N1CCN(c2cc(-c3cn(-c4ccccc4)nc3-c3cccc(O)c3)ccn2)CC1
OUT: 37.7

IN: Given the entry C=CCSC1=NC2C(N(CC)C(=O)N2CC)N1/N=C/C=C/c1ccccc1OC (stereo not drawn) , report its measured growth.
OUT: 84
